System: antibodies in sera from SARS patients (sera 1a, 1b, 2, 6, 37, 62, London, SARS-yellow, SARS-green)
Type: binding, human
MEASURED PARAMETER: Binding of serum 62 to looped/cyclic peptides of protein X1 of SARS-CoV Urbani

QUERY SEQUENCE	RESULT
HTIDGSSGVANPAMD	0.2
KDYVVVHGYFTEVYY	0.5
DTGIENATFFIFNKL	0.6
TIVVTEGDGISTPKL	0.6
TDTIVVTEGDGISTP	0.3

* * *

Test system: antibodies in sera from SARS patients (sera 1a, 1b, 2, 6, 37, 62, London, SARS-yellow, SARS-green)
Type: binding, human
MEASURED PARAMETER: Binding of serum 6 to looped/cyclic peptides of protein X1 of SARS-CoV Urbani

QUERY SEQUENCE	RESULT
VTEGDGISTPKLKED	0.1
KDYVVVHGYFTEVYY	0.2
TGIENATFFIFNKLV	0.5
DPPNVQIHTIDGSSG	0.2
LESTQITTDTGIENA	0.2
